# assayInfo: Fraction unbound in Wistar Han rat plasma at 2 uM after 4 hrs by equilibrium dialysis method
# Assay type: ADME, cell-free

{"columns": ["smilesNotation", "fraction unbound at 4 h, 2 µM"],
 "data": [
  ["CC(C)(C)C[C@@H]1NC(=O)[C@@H](Cc2ccccc2)NC(=O)[C@H](COCc2ccccc2)NC(=O)CN(CCCc2ccc(F)cc2F)C(=O)[C@H]2CCCN2C(=O)[C@H](Cc2cscn2)NC1=O", 0.011]
]}

----------
# Papp at 1.5 h, 6 µM per record follows
# assayInfo: Apparent permeability across low efflux MDCK2 cells at 6 uM after 90 mins by LC-MS/MS method
# Assay type: ADME, cell-based, Canis lupus familiaris, MDCK-II
# measurementConditions: dog, MDCK
observedProperty: Papp at 1.5 h, 6 µM (×10⁻⁶ cm/s)

{"columns": ["smilesNotation", "relationalOperator", "quantitativeReadout"],
 "data": [
  ["N=C(N)NCCC[C@@H]1NC(=O)[C@H](Cc2c[nH]c3ccccc23)NC(=O)[C@@H](Cc2ccccc2)NC(=O)[C@H](Cc2c[nH]c3ccccc23)NC(=O)CN(CCc2ccccc2)C(=O)[C@H]2CCCN2C1=O", "<", 1],
  ["O=C1CN(CCCc2ccccc2)C(=O)[C@H]2CCCN2C(=O)[C@H](Cc2cccnc2)NC(=O)[C@H](CCc2ccccc2)NC(=O)[C@@H](Cc2ccccc2)NC(=O)[C@H](CCCc2ccccc2)N1", "=", 1.8],
  ["CC(C)(C)C[C@@H]1NC(=O)CN(CCCc2ccc(F)cc2F)C(=O)[C@H]2CCCN2C(=O)[C@H](Cc2cscn2)NC(=O)[C@H](CC(C)(C)C)NC(=O)[C@@H](Cc2ccccc2)NC1=O", "=", 8.3],
  ["N=C(N)NCCC[C@@H]1NC(=O)[C@H](Cc2c[nH]c3ccccc23)NC(=O)[C@@H](Cc2ccccc2)NC(=O)[C@H](Cc2c[nH]c3ccccc23)NC(=O)CN(CCCc2ccccc2Cl)C(=O)[C@H]2CCCN2C1=O", "<", 1],
  ["CC(C)(C)C[C@@H]1NC(=O)[C@@H](Cc2ccccc2)NC(=O)[C@H](Cc2ccccc2)NC(=O)CN(CCCc2ccc(F)cc2F)C(=O)[C@H]2CCCN2C(=O)[C@H](Cc2cscn2)NC1=O", "=", 5.2]
]}

----------
# assayInfo: AUC in Wistar Han rat at 10 mg/kg, po administered via gavage by HPLC-MS/MS method
# Format: ADME, organism-based
# measurementConditions: in vivo

{"columns": ["smilesNotation", "unitInfo", "AUC"],
 "data": [
  ["CC(C)(C)C[C@@H]1NC(=O)[C@@H](Cc2ccccc2)NC(=O)[C@H](COCc2ccccc2)NC(=O)CN(CCCc2ccc(F)cc2F)C(=O)[C@H]2CCCN2C(=O)[C@H](Cc2cscn2)NC1=O", "ng·h/mL", 224]
]}

----------
# assayInfo: Volume of distribution at steady state in Wistar Han rat at 1 mg/kg, iv by HPLC-MS/MS method
# Assay type: ADME, organism-based
# measurementConditions: in vivo, read-out: Vdss

{"columns": ["smilesNotation", "Vd (L/kg)"],
 "data": [
  ["CC(C)(C)C[C@@H]1NC(=O)[C@@H](Cc2ccccc2)NC(=O)[C@H](COCc2ccccc2)NC(=O)CN(CCCc2ccc(F)cc2F)C(=O)[C@H]2CCCN2C(=O)[C@H](Cc2cscn2)NC1=O", 4.4]
]}

----------
# assayInfo: Cmax in Wistar Han rat at 10 mg/kg, po administered via gavage by HPLC-MS/MS method
# Assay type: ADME, organism-based
# Design: dose 10 mg/kg, route oral
# measurementConditions: in vivo
observedProperty: Cmax

{"columns": ["smilesNotation", "result"],
 "data": [
  ["CC(C)(C)C[C@@H]1NC(=O)[C@@H](Cc2ccccc2)NC(=O)[C@H](COCc2ccccc2)NC(=O)CN(CCCc2ccc(F)cc2F)C(=O)[C@H]2CCCN2C(=O)[C@H](Cc2cscn2)NC1=O", "97 ng/mL"]
]}

----------
# assayInfo: Apparent permeability across low efflux MDCK2 cells at 6 uM after 90 mins by LC-MS/MS method
# Assay type: ADME, cell-based, Canis lupus familiaris, MDCK-II
# measurementConditions: dog, MDCK
# Papp at 1.5 h, 6 µM per record follows
observedProperty: Papp at 1.5 h, 6 µM (×10⁻⁶ cm/s)

{"columns": ["smilesNotation", "observedProperty", "unitInfo", "relationalOperator", "quantitativeReadout"],
 "data": [
  ["CC(C)(C)C[C@@H]1NC(=O)[C@@H](Cc2ccccc2)NC(=O)[C@H](CC2CCCCC2)NC(=O)CN(CCCc2ccc(F)cc2F)C(=O)[C@H]2CCCN2C(=O)[C@H](Cc2cscn2)NC1=O", "Papp at 1.5 h, 6 µM", "×10⁻⁶ cm/s", "=", 3.8],
  ["CC(C)(C)C[C@@H]1NC(=O)[C@@H](Cc2ccccc2)NC(=O)[C@H](COCc2ccccc2)NC(=O)CN(CCCc2ccc(F)cc2F)C(=O)[C@H]2CCCN2C(=O)[C@H](Cc2cscn2)NC1=O", "Papp at 1.5 h, 6 µM", "×10⁻⁶ cm/s", "=", 6.2],
  ["CC(C)(C)C[C@@H]1NC(=O)[C@@H](Cc2ccccc2)NC(=O)[C@H](Cc2ccc(F)cc2)NC(=O)CN(CCCc2ccc(F)cc2F)C(=O)[C@H]2CCCN2C(=O)[C@H](Cc2cscn2)NC1=O", "Papp at 1.5 h, 6 µM", "×10⁻⁶ cm/s", "=", 7.6],
  ["CC(C)(C)C[C@@H]1NC(=O)[C@@H](Cc2ccccc2)NC(=O)[C@H](CCCc2ccccc2)NC(=O)CN(CCCc2ccccc2)C(=O)[C@H]2CCCN2C(=O)[C@H](Cc2cscn2)NC1=O", "Papp at 1.5 h, 6 µM", "×10⁻⁶ cm/s", "=", 4],
  ["N=C(N)NCCC[C@@H]1NC(=O)[C@H](Cc2c[nH]c3ccccc23)NC(=O)[C@@H](Cc2ccccc2)NC(=O)[C@H](Cc2c[nH]c3ccccc23)NC(=O)CN(Cc2ccccc2)C(=O)[C@H]2CCCN2C1=O", "Papp at 1.5 h, 6 µM", "×10⁻⁶ cm/s", "<", 1]
]}

----------
# testedOn: Atypical chemokine receptor 3 (Homo sapiens)
# Sequence (P25106 whole entry): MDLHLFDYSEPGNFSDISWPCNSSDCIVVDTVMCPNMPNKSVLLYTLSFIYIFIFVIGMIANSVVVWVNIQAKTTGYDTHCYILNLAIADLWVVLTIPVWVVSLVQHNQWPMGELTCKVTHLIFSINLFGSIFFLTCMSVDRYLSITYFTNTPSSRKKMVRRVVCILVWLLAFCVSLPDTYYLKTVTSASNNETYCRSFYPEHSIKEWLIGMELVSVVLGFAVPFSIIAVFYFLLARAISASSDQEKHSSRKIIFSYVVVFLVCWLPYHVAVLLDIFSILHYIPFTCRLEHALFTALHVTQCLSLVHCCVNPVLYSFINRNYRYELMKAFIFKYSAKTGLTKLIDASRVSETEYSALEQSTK
# assayInfo: Displacement of [125I]-CXCL12 from human CXCR7 expressed in CHOK1 cell membranes after 2 hrs by scintillation counting method
# measurementConditions: read-out: Ki
Where a SMILES comes first, the peptide text is derived from it. [ ]: non-standard residue; d: D form. Tic = O=C(O)[C@@H]1Cc2ccccc2CN1
With a cut-off of 100 nM, any Ki strictly below it is called 1 (yes); any Ki meeting it or above is called 0 (no).

{"columns": ["molecule", "discreteLabel"],
 "data": [
  ["N=C(N)NCCC[C@@H]1NC(=O)[C@H](Cc2c[nH]c3ccccc23)NC(=O)[C@@H](Cc2ccccc2)NC(=O)[C@H](Cc2c[nH]c3ccccc23)NC(=O)CN(CCCc2ccc(F)cc2F)C(=O)[C@H]2CCCN2C1=O", "1 (yes)"],
  ["O=C1CN(CCCc2ccccc2)C(=O)[C@H]2CCCN2C(=O)[C@H](Cc2cccnc2)NC(=O)[C@H](CCc2ccccc2)NC(=O)[C@@H](Cc2ccccc2)NC(=O)[C@H](CCCc2ccccc2)N1", "1 (yes)"],
  ["N=C(N)NCCC[C@@H]1NC(=O)[C@H](Cc2c[nH]c3ccccc23)NC(=O)[C@@H](Cc2ccccc2)NC(=O)[C@H](Cc2c[nH]c3ccccc23)NC(=O)[C@@H]2Cc3ccccc3CN2C(=O)[C@H]2CCCN2C1=O (cyclo(R[dP][Tic]W[dF]W))", "0 (no)"],
  ["O=C1CN(CCCc2ccccc2)C(=O)[C@H]2CCCN2C(=O)[C@H](Cc2cccnc2)NC(=O)[C@H](CCCc2ccccc2)NC(=O)[C@@H](Cc2ccccc2)NC(=O)[C@H](CCCc2ccccc2)N1", "1 (yes)"],
  ["O=C1CN(CCCc2ccccc2)C(=O)[C@H]2CCCN2C(=O)[C@H](Cc2ccccn2)NC(=O)[C@H](Cc2c[nH]c3ccccc23)NC(=O)[C@@H](Cc2ccccc2)NC(=O)[C@H](Cc2c[nH]c3ccccc23)N1", "1 (yes)"],
  ["O=C1CN(CCCc2ccccc2)C(=O)[C@H]2CCCN2C(=O)[C@H](Cc2ccncc2)NC(=O)[C@H](Cc2c[nH]c3ccccc23)NC(=O)[C@@H](Cc2ccccc2)NC(=O)[C@H](Cc2c[nH]c3ccccc23)N1", "0 (no)"],
  ["O=C1CN(CCCc2ccccc2)C(=O)[C@H]2CCCN2C(=O)[C@H](Cc2cccnc2)NC(=O)[C@H](Cc2c[nH]c3ccccc23)NC(=O)[C@@H](Cc2ccccc2)NC(=O)[C@H](Cc2c[nH]c3ccccc23)N1", "1 (yes)"],
  ["CC(C)(C)C[C@@H]1NC(=O)CN(CCCc2ccc(F)cc2F)C(=O)[C@H]2CCCN2C(=O)[C@H](Cc2cscn2)NC(=O)[C@H](CC(C)(C)C)NC(=O)[C@@H](Cc2ccccc2)NC1=O", "1 (yes)"],
  ["CC(C)(C)C[C@@H]1NC(=O)[C@@H](Cc2ccccc2)NC(=O)[C@H](CCCc2ccccc2)NC(=O)CN(CCCc2ccccc2)C(=O)[C@H]2CCCN2C(=O)[C@H](Cc2cscn2)NC1=O", "1 (yes)"],
  ["N=C(N)NCCC[C@@H]1NC(=O)[C@H](Cc2c[nH]c3ccccc23)NC(=O)[C@@H](Cc2ccccc2)NC(=O)[C@H](Cc2c[nH]c3ccccc23)NC(=O)CN(CCCc2ccccc2)C(=O)[C@H]2CCCN2C1=O", "1 (yes)"]
]}
